Where a SMILES comes first, the peptide text is derived from it. [ ]: non-standard residue; d: D form. The star is where a group is joined. ξ: configuration not given here. ξPhe(4-NO2) = NC(Cc1ccc([N+](=O)[O-])cc1)C(=O)O; Boc = CC(C)(C)OC(=O)*
Answer each item with its documented GI50.

# returns recorded GI50 (system: HCT-15) for O=C(Nc1ccccc1)Nn1c(-c2cccs2)nc2ccc(I)cc2c1=O
31.5 µM

# returns recorded GI50 (system: HCT-15) for COC(=O)c1ccccc1N1C(=O)Cc2ccccc2C1=O
> 100 µM

# returns recorded GI50 (system: HCT-15) for Cc1c(/N=N/c2ccc(Cl)cc2)c(-c2ccccc2)n(C2OC(CO)C(O)C(O)C2O)c(=S)c1C#N (configuration not stated)
17.1 µM

# returns recorded GI50 (system: HCT-15) for C/C(Sc1ccccc1)=C1/CCCN(Cc2ccccc2)C1
14.2 µM

# returns recorded GI50 (system: HCT-15) for O=C(CCC(=O)Nc1cccc(C(F)(F)F)c1)CC(=O)c1ccc2ccccc2c1
> 100 µM

# returns recorded GI50 (system: HCT-15) for O=c1c2ccccc2oc2nc3n(c(=O)c12)CCCS3
> 100 µM

# returns recorded GI50 (system: HCT-15) for CCOC(=O)n1c2ccccc2c(=O)n1CCO
> 100 µM

# returns recorded GI50 (system: HCT-15) for CN1NC(c2ccccc2)=C(C#N)C(=O)CC1c1ccc(F)cc1 (configuration not stated)
> 100 µM

# returns recorded GI50 (system: HCT-15) for O=C(CC(=O)c1cccc2ccccc12)C(=O)Nc1nccs1
> 100 µM

# returns recorded GI50 (system: HCT-15) for CC(Cl)CC(=O)OCC1CCCN2CCCCC12 (configuration not stated)
> 100 µM

# returns recorded GI50 (system: HCT-15) for CCCCCCCCCCCCC/C=C1\C[C@H](O)COC1=O
16.5 µM

# returns recorded GI50 (system: HCT-15) for O=C(/C=C/c1ccc(Cl)c(Cl)c1)Oc1ccc(/C=C2\CCCCC2=O)cc1
> 100 µM

# returns recorded GI50 (system: HCT-15) for Nc1ccccc1C(=O)NNC(=O)c1ccccc1N
> 100 µM

# returns recorded GI50 (system: HCT-15) for CCCCCCCCCCCCCCCCCCNc1ccn(C2OC(CO)C(O)C2O)c(=O)n1 (configuration not stated)
> 100 µM

# returns recorded GI50 (system: HCT-15) for COc1cc(C(=O)C/C(CCC(=O)Nc2ccccc2[N+](=O)[O-])=N\NC(N)=O)ccc1O
> 100 µM

# returns recorded GI50 (system: HCT-15) for c1ccc2c(NCCCCCCNc3c4ccccc4nc4ccccc34)c3ccccc3nc2c1
4.34 µM

# returns recorded GI50 (system: HCT-15) for CCc1n[nH]c(=O)[nH]1
> 100 µM

# returns recorded GI50 (system: HCT-15) for CCNC(=O)CNC(=O)C(Cc1ccc([N+](=O)[O-])cc1)NC(=O)OC(C)(C)C (configuration not stated) (Boc-[ξPhe(4-NO2)]-Gly-NHEt)
> 100 µM

# returns recorded GI50 (system: HCT-15) for COC(=O)C1=C(C(=O)OC)C2C=CC1C1C(Cl)=C(Cl)C21 (configuration not stated)
> 100 µM

# returns recorded GI50 (system: HCT-15) for COc1cc2cc(OC)c3cc4c(cc3c2c(OC)c1OC)OCO4
12.8 µM

# returns recorded GI50 (system: HCT-15) for COC(=O)[C@H](Cc1ccccc1)NC(=O)N1CCN(C(=O)N[C@@H](Cc2ccccc2)C(=O)OC)CCN(C(=O)N[C@@H](Cc2ccccc2)C(=O)OC)CC1
> 100 µM

# returns recorded GI50 (system: HCT-15) for CC(CN(C)C)C(O)(c1ccccc1)c1ccccc1 (configuration not stated)
> 100 µM

Where these numbers come from: ChEMBL document CHEMBL1201862
